- test system: Mannose-6-phosphate isomerase (Homo sapiens)
- assay info: inhibitors of human PMI, primary screen, biochemical, fluorescence intensity, coupled assay (AID 1209)
- experimental parameters: purified PMI enzyme, at 20 µM
Hit rate of the full screen: of about 190,000 compounds, about 810 (0.43%) were called active. No stated cut-off is given here; in the data, active means inhibition above about 50%; inactive means the rest. Only a selection was taken, and actives are over-represented in it overall.
Field 'call' accepts active, inactive

Here's what some known entries look like.
molecule	assigned category
CN(C)c1ncccc1-c1nc2ccccc2s1	inactive
C[n+]1ccccc1C1CCCC/C1=N\NC(N)=S (stereo unspecified)	active
CN=C1C([N+](=O)[O-])=CC=C2C1=NC1(CCCCC1)N2O	active
COc1ccc([N+](=O)[O-])cc1NC(=O)CCN1CCN(C)CC1	inactive
O=C(Cn1cc2c(n1)CCCC2)NCC1CCCO1 (stereo unspecified)	inactive

Switching to the query record.
Problem: Would you mind telling me which call this test gave CC1CCCC/C1=N\NC(=S)Nc1ccccc1 (stereo unspecified) ?
Solution: inactive
